- Test system: BE2-M17 (Neuroblastoma);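 note: after 72 h of two-drug dosing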
- experiment: Bliss excess, mean over the matrix (fraction); higher = more synergy
Mark False for Bliss excess values under -0.007, and True for everything at or above.

compound	category-label
COc1cc2ncnc(Nc3ccc(F)c(Cl)c3)c2cc1OCCCN1CCOCC1 [Gefitinib] + CC(C)n1c(=O)n(C)c2cnc3cc(F)c(-c4ccc(OCCCN5CCCCC5)nc4)cc3c21 [AZD1390] (first compound max 10 µM, 7x7, partner max 0.3 µM)	False
CN(CCO)CC[C@H](CSc1ccccc1)Nc1ccc(S(=O)(=O)NC(=O)c2ccc(N3CCC([C@@H](O)c4ccccc4-c4ccc(Cl)cc4)CC3)cc2)cc1S(=O)(=O)C(F)(F)F [AZD4320] + CN(C)CCCOc1ccc(-c2ccc3ncc4c(c3c2)n(C2CCOCC2)c(=O)n4C)cn1 [AZD0156] (first compound max 1 µM, 7x7, partner max 1 µM)	False
CC(=O)c1c(C)c2cnc(Nc3ccc(N4CCNCC4)cn3)nc2n(C2CCCC2)c1=O [Palbociclib] + CC1(C)CCC(CN2CCN(c3ccc(C(=O)NS(=O)(=O)c4ccc(NCC5CCOCC5)c([N+](=O)[O-])c4)c(Oc4cnc5[nH]ccc5c4)c3)CC2)=C(c2ccc(Cl)cc2)C1 [Venetoclax] (first compound max 10 µM, 7x7, partner max 1 µM)	True
CN(C)CCCOc1ccc(-c2ccc3ncc4c(c3c2)n(C2CCOCC2)c(=O)n4C)cn1 [AZD0156] + O=C(c1cc(Cc2n[nH]c(=O)c3ccccc23)ccc1F)N1CCN(C(=O)C2CC2)CC1 [Olaparib] (first compound max 3 µM, partner max 3 µM)	True
CC(=O)c1c(C)c2cnc(Nc3ccc(N4CCNCC4)cn3)nc2n(C2CCCC2)c1=O [Palbociclib] + Cn1cnc2c(F)c(Nc3ccc(Br)cc3Cl)c(C(=O)NOCCO)cc21 [Selumetinib] (first compound max 10 µM, 7x7, partner max 10 µM)	False
CC1(C)CCC(CN2CCN(c3ccc(C(=O)NS(=O)(=O)c4ccc(NCC5CCOCC5)c([N+](=O)[O-])c4)c(Oc4cnc5[nH]ccc5c4)c3)CC2)=C(c2ccc(Cl)cc2)C1 [Venetoclax] + COc1cc(Nc2ncc3c(n2)-c2ccc(Cl)cc2C(c2c(F)cccc2OC)=NC3)ccc1C(=O)O [Alisertib] (first compound max 1 µM, 7x7, partner max 10 µM)	True
Cn1cnc2c(F)c(Nc3ccc(Br)cc3Cl)c(C(=O)NOCCO)cc21 [Selumetinib] + CCN(CCO)CCCOc1ccc2c(Nc3cc(CC(=O)Nc4cccc(F)c4)[nH]n3)ncnc2c1 [AZD2811] (first compound max 10 µM, 7x7, partner max 1 µM)	False
COc1cccc(OCCCN)c1-c1cc(Nc2cnc(C#N)cn2)n[nH]1 [Prexasertib] + O=C(c1cc(Cc2n[nH]c(=O)c3ccccc23)ccc1F)N1CCN(C(=O)C2CC2)CC1 [Olaparib] (first compound max 1 µM, 7x7, partner max 10 µM)	False

Task: Does Cc1c2c(nn1C)CSCc1cc(n(C)n1)CSc1cc(c3ccccc3c1)OCCCc1c(C(=O)O)n(C)c3c-2c(Cl)ccc13 [AZD5991] + C[C@@H]1COCCN1C2=NC(=NC(=C2)C3(CC3)[S@](=N)(=O)C)C4=C5C=CNC5=NC=C4 [AZD6738] (first compound max 1 µM, 7x7, partner max 10 µM) have a reported Bliss excess of at least -0.007?
Output: True

Task: Does CN(CCO)CC[C@H](CSc1ccccc1)Nc1ccc(S(=O)(=O)NC(=O)c2ccc(N3CCC([C@@H](O)c4ccccc4-c4ccc(Cl)cc4)CC3)cc2)cc1S(=O)(=O)C(F)(F)F [AZD4320] + Cn1cnc2c(F)c(Nc3ccc(Br)cc3Cl)c(C(=O)NOCCO)cc21 [Selumetinib] (first compound max 1 µM, 7x7, partner max 3 µM) have a reported Bliss excess of at least -0.007?
Output: True
